# system.name: rat adenine binding GPCR (Rattus norvegicus)
# Sequence (Q7TN49 1-304): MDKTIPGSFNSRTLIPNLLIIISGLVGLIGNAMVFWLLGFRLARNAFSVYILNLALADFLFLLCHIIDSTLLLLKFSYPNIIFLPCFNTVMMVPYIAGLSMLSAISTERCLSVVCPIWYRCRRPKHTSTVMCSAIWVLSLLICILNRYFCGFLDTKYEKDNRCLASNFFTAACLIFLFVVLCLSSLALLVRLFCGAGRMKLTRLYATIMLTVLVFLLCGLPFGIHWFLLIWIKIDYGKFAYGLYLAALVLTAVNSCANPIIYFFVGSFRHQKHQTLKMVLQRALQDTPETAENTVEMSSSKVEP
# experimental.details: FLIPR Ca2+ transient assay, agonism, HEK293/Gq chimera cells transiently transfected with rat adenine binding GPCR/pcDNA3
# Assay type: cell-based
# Parameters: The full length reading frame was inserted into the mammalian expression vector pcDNA3; expressed in transfected cells; host or cells: HEK293 cells stably transfected with pLEC/Gqi or pLEC/Gqo
# cond: HEK293/Gaqo cells, 3.3 μM
property: calcium transients elicited

* Nc1nc2nc[nH]c2c(=O)[nH]1 [Guanine, guanine] | could not be elicited
* O=c1ccn([C@@H]2O[C@H](COP(=O)(O)OP(=O)(O)O)[C@@H](O)[C@H]2O)c(=O)[nH]1 [UDP] | could not be elicited
* O=c1[nH]c(=O)c2[nH]cnc2[nH]1 [xanthine] | could not be elicited
* O=c1[nH]cnc2nc[nH]c12 [Hypoxanthine, hypoxanthine] | could not be elicited
* O=c1ccn([C@@H]2O[C@H](CO)[C@@H](O)[C@H]2O)c(=O)[nH]1 [Uridine, uridine] | could not be elicited

---

# system.name: adenine binding rat receptor (Rattus norvegicus, UniProt Q7TN49)
# Construct: expressed in transfected cells; host or cells: CHO cells, transient, lipofectamine PLUS
# experimental.details: [3H]adenine saturation binding on CHO membranes transiently transfected
# cond: transfected cells, 100 μM Gpp-NHp, mean n=3
property: Kd (nM)

* Nc1ncnc2nc[nH]c12 [[^3H]adenine] | 61

---

# system.name: rat adenine binding GPCR (Rattus norvegicus)
# experimental.details: Intracellular Ca2+ measurements (FLIPR) on permanently transfected CHO cells, clone 28
# Format: cell-based
# Parameters: The full length reading frame was inserted into the mammalian expression vector pcDNA3; expressed in transfected cells
# cond: clone 28, Na-butyrate treated cells
property: EC50 (µM)

- Nc1ncnc2nc[nH]c12 [Adenine, adenine]: 0.0148

---

Catalogue of compounds with associated % stim.
# system.name: adenine binding rat receptor (Rattus norvegicus)
# Construct: expressed in transfected cells; host or cells: CHO cells, transient, lipofectamine PLUS
# experimental.details: [35S]GTPγS binding on CHO membranes transiently transfected
# Format: biochemical
# cond: transiently transfected cells, increase above basal, mean of n experiments
property: % stim. (%)

• Nc1ncnc2c1ncn2[C@@H]1O[C@H](COP(=O)(O)O)[C@@H](O)[C@H]1O [AMP] = 95
• Cn1cnc2ncnc-2c1N [1-Methyladenine] = 129
• c1ccc(CNc2ncnc3nc[nH]c23)cc1 [6-Benzylaminopurine] = 12
• Nc1ncnc2nc[nH]c12 [Adenine, adenine] = 148

---

# system.name: UniProt Q7TN49
# experimental.details: Intracellular Ca2+ measurements (FLIPR) on permanently transfected CHO cells, clone 28
# Format: cell-based
# Set-up: The full length reading frame was inserted into the mammalian expression vector pcDNA3; expressed in transfected cells
# cond: clone 28, non-Na-butyrate treated cells
property: EC50 (nM)

- Nc1ncnc2nc[nH]c12: 72.4

---

Catalogue of compounds with associated pIC50
# system.name: adenine binding rat receptor (Rattus norvegicus, UniProt Q7TN49)
# Construct: expressed in transfected cells; host or cells: CHO cells, transient, lipofectamine PLUS
# Sequence (Q7TN49 1-304): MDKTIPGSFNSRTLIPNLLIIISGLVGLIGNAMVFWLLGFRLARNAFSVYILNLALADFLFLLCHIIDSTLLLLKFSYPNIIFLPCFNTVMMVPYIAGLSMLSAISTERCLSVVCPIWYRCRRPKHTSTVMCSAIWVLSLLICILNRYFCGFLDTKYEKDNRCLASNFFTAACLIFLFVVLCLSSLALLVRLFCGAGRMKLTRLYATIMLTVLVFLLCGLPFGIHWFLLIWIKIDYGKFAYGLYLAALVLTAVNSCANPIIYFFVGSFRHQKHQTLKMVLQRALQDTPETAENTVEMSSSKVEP
# experimental.details: [3H]adenine competition binding on CHO membranes transiently transfected
# cond: transfected cells, 15 nM [3H]adenine, mean of n experiments
property: pIC50

- COc1cccc2c1C(=O)c1c(O)c3c(c(O)c1C2=O)C[C@@](O)(C(=O)CO)C[C@@H]3O[C@H]1C[C@H](N)[C@H](O)[C@H](C)O1: 4.35
- Nc1ncnc2c1ncn2[C@@H]1O[C@H](COP(=O)(O)O)[C@@H](O)[C@H]1O: 4.41
- Nc1ncnc2c1ncn2[C@@H]1O[C@H](COP(=O)(O)OP(=O)(O)OP(=O)(O)O)[C@@H](O)[C@H]1O: 4.07

---

# system.name: adenine binding rat receptor (Rattus norvegicus)
# Construct: expressed in transfected cells; host or cells: CHO cells, transient, lipofectamine PLUS
# experimental.details: [3H]adenine saturation binding on CHO membranes transiently transfected
# cond: transfected cells, No Gpp-NHp, mean n=3
property: Kd (µM)

* Nc1ncnc2nc[nH]c12 [[^3H]adenine] | 0.024

---

# system.name: adenine binding rat receptor (Rattus norvegicus)
# Construct: expressed in transfected cells; host or cells: CHO cells, transient, lipofectamine PLUS
# Sequence (Q7TN49 1-304): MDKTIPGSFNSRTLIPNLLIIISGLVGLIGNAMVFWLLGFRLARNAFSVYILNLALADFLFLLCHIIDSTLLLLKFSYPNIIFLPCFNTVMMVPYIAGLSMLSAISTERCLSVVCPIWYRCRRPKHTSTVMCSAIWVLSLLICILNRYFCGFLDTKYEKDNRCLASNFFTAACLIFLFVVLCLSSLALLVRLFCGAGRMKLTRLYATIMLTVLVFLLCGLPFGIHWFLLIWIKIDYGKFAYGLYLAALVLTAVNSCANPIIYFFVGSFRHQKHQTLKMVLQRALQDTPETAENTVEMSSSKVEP
# experimental.details: [35S]GTPγS binding on CHO membranes permanently transfected
# Assay type: biochemical
# cond: 4 selected clones; read-out: mean EC50
property: EC50 (nM)

* Nc1ncnc2nc[nH]c12 | 62

---

# system.name: adenine binding rat receptor (Rattus norvegicus, UniProt Q7TN49)
# Construct: expressed in transfected cells; host or cells: CHO cells, transient, lipofectamine PLUS
# experimental.details: [3H]adenine competition binding on CHO membranes transiently transfected
# cond: transfected cells, 15 nM [3H]adenine, single experiments
Catalogue of molecules with associated IC50
property: IC50 (µM)

- c1ccc(CNc2ncnc3nc[nH]c23)cc1: 87.1
- COc1cccc2c1C(=O)c1c(O)c3c(c(O)c1C2=O)C[C@@](O)(C(C)=O)C[C@@H]3O[C@H]1C[C@H](N)[C@H](O)[C@H](C)O1: 50.1

---

# system.name: adenine binding rat receptor (Rattus norvegicus)
# Construct: expressed in transfected cells; host or cells: CHO cells, transient, lipofectamine PLUS
# experimental.details: cAMP measurements on CHO cells transiently transfected (forskolin stimulated)
# Assay type: cell-based
# cond: inhibition of forskolin stimulated cAMP, transiently transfected cells; read-out: EC50
pEC50: −log10 of the molar value.
property: pEC50

* Nc1ncnc2nc[nH]c12 | ~7.82

---

Catalogue of compounds with associated pKi
# system.name: adenine binding rat receptor (Rattus norvegicus)
# Construct: expressed in transfected cells; host or cells: CHO cells, transient, lipofectamine PLUS
# experimental.details: [3H]adenine competition binding on CHO membranes transiently transfected
# cond: transfected cells, 15 nM [3H]adenine, single experiments
pKi: −log10 of the molar value.
property: pKi

• COc1cccc2c1C(=O)c1c(O)c3c(c(O)c1C2=O)C[C@@](O)(C(=O)CO)C[C@@H]3O[C@H]1C[C@H](N)[C@H](O)[C@H](C)O1 = 4.56
• COc1cccc2c1C(=O)c1c(O)c3c(c(O)c1C2=O)C[C@@](O)(C(C)=O)C[C@@H]3O[C@H]1C[C@H](N)[C@H](O)[C@H](C)O1 = 4.51
• Nc1ncnc2c1ncn2[C@@H]1O[C@H](CO)[C@@H](O)[C@H]1O = 4.35

---

# system.name: adenine binding rat receptor (Rattus norvegicus, UniProt Q7TN49)
# Construct: expressed in transfected cells; host or cells: CHO cells, transient, lipofectamine PLUS
# experimental.details: [3H]adenine competition binding on CHO membranes transiently transfected
# cond: transfected cells, 15 nM [3H]adenine, mean of n experiments
pIC50: −log10 of the molar value.
Catalogue of compounds with associated pIC50
property: pIC50

- Nc1ncnc2nc[nH]c12: 7.55
- c1ccc(CNc2ncnc3nc[nH]c23)cc1: 4.03
- Cn1cnc2ncnc-2c1N: 5.15
- COc1cccc2c1C(=O)c1c(O)c3c(c(O)c1C2=O)C[C@@](O)(C(C)=O)C[C@@H]3O[C@H]1C[C@H](N)[C@H](O)[C@H](C)O1: 4.30

The origin of these recorded values is patent US20030157516A1.
